Assay: Volume of distribution in male Sprague-Dawley rat at 3 mg/kg, iv measured after 24 hrs by LC-MS/MS analysis
Type: ADME, organism-based
Conditions: in vivo
Bridge positions count the residues as written; N and C are the ends. Square brackets hold non-standard residues; d marks the D form. Peptide text beside a SMILES is read from it. * marks the point of attachment. Heptanoyl(6-Me) = CC(C)CCCCC(=O)*; Dab = NCC[C@H](N)C(=O)O; Dap = NC[C@H](N)C(=O)O
ENDPOINT LABEL: Vd (L/kg)

CC(C)CCCCC(=O)N[C@@H](CCN)C(=O)N[C@H](C(=O)N[C@@H](CN)C(=O)N[C@H]1CCNC(=O)[C@H]([C@@H](C)O)NC(=O)[C@H](CCN)NC(=O)[C@H](CCN)NC(=O)[C@H]([C@@H](C)O)NC(=O)[C@@H](Cc2ccccc2)NC(=O)[C@H](CCN)NC1=O)[C@@H](C)O ({Heptanoyl(6-Me)}-[Dab]T[Dap][Dab][Dab][dF]T[Dab][Dab]T; lactam 4-C) | 0.78

---

Experiment: Protein binding in human plasma assessed as unbound fraction at 0.2 uM incubated for 6 hrs by LC-MS/MS analysis
Format: ADME, cell-free
Bridge positions count the residues as written; N and C are the ends. Square brackets hold non-standard residues; d marks the D form. Peptide text beside a SMILES is read from it. * marks the point of attachment. Heptanoyl(6-Me) = CC(C)CCCCC(=O)*; Dab = NCC[C@H](N)C(=O)O; Dap = NC[C@H](N)C(=O)O
ENDPOINT LABEL: fraction unbound at 6 h, 0.2 µM

CC(C)CCCCC(=O)N[C@@H](CCN)C(=O)N[C@H](C(=O)N[C@@H](CN)C(=O)N[C@H]1CCNC(=O)[C@H]([C@@H](C)O)NC(=O)[C@H](CCN)NC(=O)[C@H](CCN)NC(=O)[C@H]([C@@H](C)O)NC(=O)[C@@H](Cc2ccccc2)NC(=O)[C@H](CCN)NC1=O)[C@@H](C)O ({Heptanoyl(6-Me)}-[Dab]T[Dap][Dab][Dab][dF]T[Dab][Dab]T; lactam 4-C) | 0.232
CC(C)CCCCC(=O)N[C@@H](CCN)C(=O)N[C@H](C(=O)N[C@@H](CCN)C(=O)N[C@H]1CCNC(=O)[C@H]([C@@H](C)O)NC(=O)[C@H](CCN)NC(=O)[C@H](CCN)NC(=O)[C@H](CC(C)C)NC(=O)[C@@H](Cc2ccccc2)NC(=O)[C@H](CCN)NC1=O)[C@@H](C)O ({Heptanoyl(6-Me)}-[Dab]T[Dab][Dab][Dab][dF]L[Dab][Dab]T; lactam 4-C) | 0.099

---

Test system: Acinetobacter baumannii
Experiment: Antibacterial activity against Acinetobacter baumannii NCTC 13304 (OXA-27) assessed as inhibition of bacterial growth incubated for 16 to 20 hrs by CLSI protocol based broth microdilution method
Type: functional
Conditions: time 16-20 hrs
Bridge positions count the residues as written; N and C are the ends. Square brackets hold non-standard residues; d marks the D form. Peptide text beside a SMILES is read from it. * marks the point of attachment. Heptanoyl(6-Me) = CC(C)CCCCC(=O)*; dNle = CCCC[C@@H](N)C(=O)O; dOrn = NCCC[C@@H](N)C(=O)O; Octanoyl = CCCCCCCC(=O)*; Orn = NCCC[C@H](N)C(=O)O; Dab = NCC[C@H](N)C(=O)O; Dap = NC[C@H](N)C(=O)O
ENDPOINT LABEL: MIC (µg/mL)

CC(C)CCCCC(=O)N[C@@H](CCN)C(=O)N[C@H](C(=O)N[C@H](CCCCN)C(=O)N[C@H]1CCNC(=O)[C@H]([C@@H](C)O)NC(=O)[C@H](CCN)NC(=O)[C@H](CCN)NC(=O)[C@H]([C@@H](C)O)NC(=O)[C@@H](Cc2ccccc2)NC(=O)[C@H](CCN)NC1=O)[C@@H](C)O | 0.5
CC(C)CCCCC(=O)N[C@@H](CCN)C(=O)N[C@H](C(=O)N[C@H](CCCN)C(=O)N[C@H]1CCNC(=O)[C@H]([C@@H](C)O)NC(=O)[C@H](CCN)NC(=O)[C@H](CCN)NC(=O)[C@H]([C@@H](C)O)NC(=O)[C@@H](Cc2ccccc2)NC(=O)[C@H](CCN)NC1=O)[C@@H](C)O ({Heptanoyl(6-Me)}-[Dab]T[dOrn][Dab][Dab][dF]T[Dab][Dab]T; lactam 4-C) | 0.06
CC(C)CCCCC(=O)N[C@@H](CCN)C(=O)N[C@H](C(=O)N[C@H](CO)C(=O)N[C@H]1CCNC(=O)[C@H]([C@@H](C)O)NC(=O)[C@H](CCN)NC(=O)[C@H](CCN)NC(=O)[C@H]([C@@H](C)O)NC(=O)[C@@H](Cc2ccccc2)NC(=O)[C@H](CCCN)NC1=O)[C@@H](C)O ({Heptanoyl(6-Me)}-[Dab]T[dS][Dab][Orn][dF]T[Dab][Dab]T; lactam 4-C) | 64
CC(C)CCCCC(=O)N[C@@H](CCN)C(=O)N[C@H](C(=O)N[C@@H](CCCN)C(=O)N[C@H]1CCNC(=O)[C@H]([C@@H](C)O)NC(=O)[C@H](CCN)NC(=O)[C@H](CCN)NC(=O)[C@H]([C@@H](C)O)NC(=O)[C@@H](Cc2ccccc2)NC(=O)[C@H](CCN)NC1=O)[C@@H](C)O ({Heptanoyl(6-Me)}-[Dab]T[Orn][Dab][Dab][dF]T[Dab][Dab]T; lactam 4-C) | 0.06
CCCCCCCC(=O)N[C@@H](CCN)C(=O)N[C@H](C(=O)N[C@@H](CCN)C(=O)N[C@H]1CCNC(=O)[C@H]([C@@H](C)O)NC(=O)[C@H](CCN)NC(=O)[C@H](CCN)NC(=O)[C@H]([C@@H](C)O)NC(=O)[C@@H](CCC)NC(=O)[C@H](CCN)NC1=O)[C@@H](C)O | 4
CC(C)CCCCC(=O)N[C@@H](CCN)C(=O)N[C@H](C(=O)N[C@H](CO)C(=O)N[C@H]1CCNC(=O)[C@H]([C@@H](C)O)NC(=O)[C@H](CCCN)NC(=O)[C@H](CCN)NC(=O)[C@H]([C@@H](C)O)NC(=O)[C@@H](Cc2ccccc2)NC(=O)[C@H](CCN)NC1=O)[C@@H](C)O ({Heptanoyl(6-Me)}-[Dab]T[dS][Dab][Dab][dF]T[Dab][Orn]T; lactam 4-C) | 8
CC(C)CCCCC(=O)N[C@@H](CN)C(=O)N[C@H](C(=O)N[C@H](CO)C(=O)N[C@H]1CCNC(=O)[C@H]([C@@H](C)O)NC(=O)[C@H](CCN)NC(=O)[C@H](CCN)NC(=O)[C@H]([C@@H](C)O)NC(=O)[C@@H](Cc2ccccc2)NC(=O)[C@H](CCN)NC1=O)[C@@H](C)O ({Heptanoyl(6-Me)}-[Dap]T[dS][Dab][Dab][dF]T[Dab][Dab]T; lactam 4-C) | 0.25
CCCCCCCC(=O)N[C@@H](CCN)C(=O)N[C@H](C(=O)N[C@@H](CCN)C(=O)N[C@H]1CCNC(=O)[C@H]([C@@H](C)O)NC(=O)[C@H](CCN)NC(=O)[C@H](CCN)NC(=O)[C@H]([C@@H](C)O)NC(=O)[C@@H](CCCC)NC(=O)[C@H](CCN)NC1=O)[C@@H](C)O (Octanoyl-[Dab]T[Dab][Dab][Dab][dNle]T[Dab][Dab]T; lactam 4-C) | 1
CC(C)CCCCC(=O)N[C@@H](CCN)C(=O)N[C@H](C(=O)N[C@@H](CCN)C(=O)N[C@H]1CCNC(=O)[C@H]([C@@H](C)O)NC(=O)[C@H](CCN)NC(=O)[C@H](CCN)NC(=O)[C@H]([C@@H](C)O)NC(=O)[C@@H](Cc2ccccc2)NC(=O)[C@H](CCN)NC1=O)[C@@H](C)O ({Heptanoyl(6-Me)}-[Dab]T[Dab][Dab][Dab][dF]T[Dab][Dab]T; lactam 4-C) | 0.25
